System: HMLE_sh_eGFP viability, CellTiter-Glo luminescence, 72 h
Assay: cytotoxicity in HMLE control line with eGFP shRNA, dose response, counter-screen for HMLE_sh_ECad selective toxicity project, cell-based, HMLE_sh_eGFP, luminescence (AID 463074);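 further: counterscreen control line to flag general toxicity for the HMLE_sh_ECad screen; potency for loss of viability as luminescence drops below DMSO wells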
Listed here: items and their measured AC50.

molecule	AC50
O=C1c2ccccc2NC(c2ccc(-c3ccc(Br)cc3)o2)N1O (stereo not given)	5060 nM
Oc1cccc(-c2nc3c4c(ncn3n2)-c2ccccc2CC42CCCC2)c1	1500 nM
Cc1cc(C)cc(NC(=O)Nc2ccc(-n3ccc(C(F)(F)F)n3)cc2)c1	4950 nM

QUERY: Value lookup for AC50; key = Cc1ccccc1C(=O)Nc1ccc(-c2nc3ccc(C(=O)c4ccccc4)cc3[nH]2)cc1
RESULT: 1800 nM

QUERY: Which measured AC50 value corresponds to CCOC(=O)C(C)(C)N(Cc1ccc(Cl)cc1)S(=O)(=O)c1ccc(Cl)c([N+](=O)[O-])c1 ?
RESULT: 2500 nM

Data origin: PubChem BioAssay AID463074
